Note to self: these compounds have IC50 reported for UniProt:P36897 in various publications.
Label Fulfilled when IC50 < 90 nM; otherwise Not fulfilled.

Consider the compound Cc1cccc(-n2cccc2-c2ccc3ncc(C(=O)N(C)C)n3c2)n1 . Is its IC50 strictly less than 90 nM?
Not fulfilled

Consider the compound Nc1ncc(-c2ccc([C@]34C[C@H]3CN(CCC(F)(F)F)C4)cc2)cc1C(=O)N[C@H]1CC[C@H](O)CC1 . Is its IC50 strictly less than 90 nM?
Not fulfilled

Consider the compound Cc1ccc(Oc2ccnc(Nc3ccnc(C(C)(C)O)c3)c2)c(C2CC2)n1 . Is its IC50 strictly less than 90 nM?
Fulfilled

Consider the compound C[C@]1(O)CC[C@H](NC(=O)c2cc(-c3ccc([C@]45C[C@H]4CN(C4CCC(F)(F)CC4)C5)cc3)cnc2N)CC1 . Is its IC50 strictly less than 90 nM?
Not fulfilled

Consider the compound CN1C(=O)Cc2cc(-c3cncc(-c4ccc(=O)n(CC(F)(F)F)c4)c3)ccc21 . Is its IC50 strictly less than 90 nM?
Not fulfilled

Consider the compound CC(C)(O)c1cc(Nc2cc(Oc3sc(C4CC4)nc3C3CCOCC3)ccn2)ccn1 . Is its IC50 strictly less than 90 nM?
Not fulfilled

Consider the compound CC(C)(O)c1cc(Nc2cc(Oc3cc(C(F)(F)F)nn3C3CCOCC3)ccn2)ccn1 . Is its IC50 strictly less than 90 nM?
Fulfilled

Consider the compound CN1C(=O)Cc2cc(-c3cncc(-c4ccc(=O)n(CCC(F)(F)F)c4)c3)ccc21 . Is its IC50 strictly less than 90 nM?
Not fulfilled

Consider the compound COc1cc(-c2cnc3sc(NCCCO)nn23)cc(OC)c1OC . Is its IC50 strictly less than 90 nM?
Not fulfilled

Consider the compound CC(C)(O)c1cc(Nc2cc(Oc3cc(C(F)(F)F)nn3C3CNC3)ccn2)ccn1 . Is its IC50 strictly less than 90 nM?
Not fulfilled

Consider the compound CC1(C)OC(=O)c2ccc(Nc3cc(Oc4cn(C5CC5)nc4C4CCOCC4)ccn3)cc21 . Is its IC50 strictly less than 90 nM?
Fulfilled

Consider the compound Cc1cccc(-c2ccccc2-c2ccc3ncc(C(=N)N)n3c2)n1 . Is its IC50 strictly less than 90 nM?
Not fulfilled

Consider the compound CC1(C)OC(=N)c2ccc(Nc3cc(Oc4cn(C5CC5)nc4C4CCOCC4)ccn3)cc21 . Is its IC50 strictly less than 90 nM?
Fulfilled

Consider the compound N#Cc1cccc(Nc2cc(Oc3cc(C(F)(F)F)nn3C3CCOCC3)ccn2)c1 . Is its IC50 strictly less than 90 nM?
Not fulfilled

Consider the compound Cc1cccc2c(Nc3ccnc(Nc4cccc(C5CCNCC5)c4)n3)cnnc12 . Is its IC50 strictly less than 90 nM?
Fulfilled

Consider the compound Nc1ncc(-c2ccc([C@@]34C[C@@H]3CN(C3CCOCC3)C4)cc2)cc1C(=O)NC12CCC(O)(CC1)CC2 . Is its IC50 strictly less than 90 nM?
Not fulfilled

Consider the compound Cc1cccc2c(Nc3ccnc(Nc4cc(CN5CCNCC5)ccc4F)n3)cnnc12 . Is its IC50 strictly less than 90 nM?
Fulfilled

Consider the compound Cc1csc(-c2ccccc2-c2ccc3ncc(C(N)=O)n3c2)n1 . Is its IC50 strictly less than 90 nM?
Fulfilled
